src = patent US4500545A

Test system: prolactin secretion
assay.summary: Prolactin secretion inhibition in reserpine-treated rats
Format: in vivo, rat (adult male Sprague-Dawley)
experimental.setup: 1 mg./kg. intraperitoneal; reserpine-pretreated male rats; serum 1 hour after treatment
Protocol: The compounds of this invention are also useful as inhibitors of prolactin secretion. Dopaminergic drugs with such activity can be employed in the treatment of inappropriate lactation, such as postpartum lactation and galactorrhea. […] Each rat received an intraperitoneal injection of 2.0 mg. of reserpine in aqueous suspension 18 hours before administration of the test compound. The purpose of the reserpine was to keep prolactin levels uniformly elevated. […]
Reported Percent Inhibition of Prolactin Secretion is given for each of the following compounds.
Use % as the unit, but write only the number.

Qu. Consider the compound shown here: CCCN(CCC)C1CCc2cc(O)c(C(N)=O)cc2C1 (racemic) What is its recorded Percent Inhibition of Prolactin Secretion?
Ans. 88

###

Tested on: prolactin secretion
assay.summary: Prolactin secretion inhibition in reserpine-treated rats
Assay type: in vivo, rat (adult male Sprague-Dawley)
experimental.setup: 1 mg./kg. intraperitoneal; reserpine-pretreated male rats; serum 1 hour after treatment
measurement.name: Percent Inhibition of Prolactin Secretion (%)
The reply should contain only the number, in %.

Some solved cases for reference:
>>> print(df.to_string())
                                   compound  output_unit  value_reported
0      NC(=O)c1c(O)ccc2c1CCC(N)C2 (racemic)            %              13
1  CCCN(CCC)C1CCc2c(ccc(O)c2C(N)=O)C1 (racemic)            %              12
2  CN(C)C1CCc2cc(O)c(C(N)=O)cc2C1 (racemic)            %              36

Consider the record given below.
Qu. Percent Inhibition of Prolactin Secretion for NC(=O)c1cc2c(cc1O)CCC(N)C2 (racemic) ?
Ans. 18
